Item-by-item account of half-life
experiment: Chemical stability study in buffers (hydrolysis half-life, HPLC); assay type: physicochemical; details: buffer, pH 3.3, pH 3.3, 25° C.; read-out: t1/2 (chemical stability) (converted)
Could you give me the number in h? Just the number is fine.

CO[C@H]1C[C@@H]2CC[C@@H](C)[C@@](O)(O2)C(=O)C(=O)N2CCCC[C@H]2C(=O)O[C@H]([C@H](C)C[C@@H]2CC[C@@H](O)[C@H](OC)C2)CC(=O)[C@H](C)/C=C(\C)[C@@H](O)[C@@H](OC)C(=O)[C@H](C)C[C@H](C)/C=C/C=C/C=C/1C
35.8

For the molecule `CO[C@H]1C[C@@H]2CC[C@@H](C)[C@@](O)(O2)C(=O)C(=O)N2CCCC[C@H]2C(=O)O[C@H]([C@H](C)C[C@@H]2CC[C@@H](O)[C@H](OC)C2)CC(=O)[C@H](C)/C=C(\C)[C@@H](OC(=O)CN(C)C)[C@@H](OC)C(=O)[C@H](C)C[C@H](C)/C=C/C=C/C=C/1C` , what half-life is on record? 73

====

experiment: Chemical stability study in buffers (hydrolysis half-life, HPLC); assay type: physicochemical; details: buffer, pH 7.4, pH 7.4, 25° C.; read-out: t1/2 (chemical stability) (converted)
readout-name: half-life (h)
Could you give me the number in h? Just the number is fine.

CO[C@H]1C[C@@H]2CC[C@@H](C)[C@@](O)(O2)C(=O)C(=O)N2CCCC[C@H]2C(=O)O[C@H]([C@H](C)C[C@@H]2CC[C@@H](O)[C@H](OC)C2)CC(=O)[C@H](C)/C=C(\C)[C@@H](OC(=O)CN(C)C)[C@@H](OC)C(=O)[C@H](C)C[C@H](C)/C=C/C=C/C=C/1C
45

For the molecule `CO[C@H]1C[C@@H]2CC[C@@H](C)[C@@](O)(O2)C(=O)C(=O)N2CCCC[C@H]2C(=O)O[C@H]([C@H](C)C[C@@H]2CC[C@@H](O)[C@H](OC)C2)CC(=O)[C@H](C)/C=C(\C)[C@@H](O)[C@@H](OC)C(=O)[C@H](C)C[C@H](C)/C=C/C=C/C=C/1C` , what half-life is on record? 47.6
